Assign TGI to each entry below.
# Tested on: T-47D breast
# protocol details: NCI tumour cell line growth inhibition, 48 h

Prompt line: // query TGI value for entry Nc1nc(-c2ccccc2)c(-c2ccccc2)c(-c2nc(N)nc(-c3ccccc3)c2-c2ccccc2)n1
Response line: > 100 µM

Prompt line: // query TGI value for entry CCN(CC)CCNc1ccc([N+](=O)[O-])c2nc3ccccc3c(N)c12
Response line: > 10 µM

Prompt line: // query TGI value for entry COc1ccc2c(c1)/C(=C(\C(Cl)=C(Cl)Cl)[N+](=O)[O-])N2
Response line: > 100 µM

Prompt line: // query TGI value for entry O=S(=O)(NCCNc1nccc(-c2c(-c3cccc(O)c3)nc3sccn23)n1)c1ccc(F)cc1
Response line: 25 µM

Prompt line: // query TGI value for entry NC(CCCCCP(=O)(O)O)C(=O)O (configuration not stated)
Response line: > 100 µM

Prompt line: // query TGI value for entry Clc1cc2nc(C3CCCO3)[nH]c2cc1Cl (configuration not stated)
Response line: > 100 µM

Prompt line: // query TGI value for entry NC(=O)c1cnc2sc3ccccc3n2c1=O
Response line: > 100 µM

====

# System: CAKI-1 renal
# protocol details: NCI tumour cell line growth inhibition, 48 h
property name: TGI (µM)
Write the value in µM as a bare number.

Prompt line: // query TGI value for entry Cc1csc2c(P(=O)(OC(C)C)OC(C)C)c(-c3ccccc3)cn12
Response line: 43.4

Prompt line: // query TGI value for entry COc1ccc(-c2cc(-c3ccccc3)n(C3OC(COC(C)=O)C(OC(C)=O)C(OC(C)=O)C3OC(C)=O)c(=S)c2C#N)cc1 (stereo not drawn)
Response line: 19

Prompt line: // query TGI value for entry CCN(CC)CC(O)c1ccc2ccc3ccccc3c2c1 (stereo not drawn)
Response line: 26.6

Prompt line: // query TGI value for entry Cc1ccc(/C=C(\C#N)n2nnc3cc(Cl)c(Cl)cc32)cc1
Response line: 13.8

Prompt line: // query TGI value for entry CCN(CC)CCN1C(=O)c2cccc3c(-c4ccc5c(c4)ncn5C4CCCCC4)ccc(c23)C1=O
Response line: 5.45

Prompt line: // query TGI value for entry COc1cc2cc(c1Cl)N(C)C(=O)CC(OC(=O)C(C)C)C1(C)OC1C(C)C1CC(O)(NC(=O)O1)C(OC)/C=C/C=C(C)C2 (stereo not drawn)
Response line: 19.1

Prompt line: // query TGI value for entry Cc1ccc2nc3c(Cl)cc(=O)cc-3sc2c1
Response line: 71.1

Prompt line: // query TGI value for entry Fc1ccc(-c2nc(-c3nc4ccc(Cl)cc4[nH]3)cc3c2[nH]c2ccccc23)cc1
Response line: 24

Prompt line: // query TGI value for entry CCN(CC)CCN1c2ccccc2Sc2ccc3ccccc3c21
Response line: 22.7

Prompt line: // query TGI value for entry CN(C)C(=S)Nc1nnc(NC23CC4CC(CC(C4)C2)C3)s1
Response line: 68.8

Prompt line: // query TGI value for entry COC(=O)[C@]12CC[C@@H](C)[C@H](C)[C@@H]1C1=CC[C@@H]3[C@@]4(C)C[C@@H](OC(=O)c5ccco5)[C@H](O)[C@@](C)(CO)[C@@H]4[C@H](O)C[C@@]3(C)[C@]1(C)CC2
Response line: 10.9

====

# Test system: OVCAR-8 ovarian
# protocol details: NCI tumour cell line growth inhibition, 48 h
property name: TGI

Prompt line: // query TGI value for entry Nc1nc(-c2ccccc2)c(-c2ccccc2)c(-c2nc(N)nc(-c3ccccc3)c2-c2ccccc2)n1
Response line: > 100 µM

Prompt line: // query TGI value for entry O=c1oc2ncccc2n1Cc1ccc([N+](=O)[O-])cc1
Response line: > 100 µM

Prompt line: // query TGI value for entry CC(=O)OC1(C#N)CC2OC1C1C2N1C(=O)c1ccccc1 (stereo not given)
Response line: > 100 µM

Prompt line: // query TGI value for entry COCCc1c(C)c(C#N)c2n(C)c3ccccc3n2c1=O
Response line: > 10 µM

Prompt line: // query TGI value for entry COC(=O)N1CC[C@@H]2CCC=C(c3cccc4c3OCO4)[C@@H]21
Response line: > 100 µM

Prompt line: // query TGI value for entry COC1/C=C\C=C(/C)C(=O)NC2=CC(=O)C=C(C2=O)C(OC)C(C)CC(OC)C(OC)C(C)/C=C(/C)C1OC(N)=O (stereo not given)
Response line: 5.62 µM

Prompt line: // query TGI value for entry COc1cc2c(cc1C)NC(=O)/C2=C/c1c(Cl)[nH]c2cc(C)c(OC)cc12
Response line: 24.1 µM

Prompt line: // query TGI value for entry CN(C)C(=S)Nc1nnc(NC23CC4CC(CC(C4)C2)C3)s1
Response line: > 100 µM

Prompt line: // query TGI value for entry CCOC(=O)C1=C(Nc2ccccc2)OC/C1=N\NC(=O)Cc1ccccc1
Response line: > 50 µM

Prompt line: // query TGI value for entry COc1cc2c(cc1OC)C(CCc1ccc(Cl)cc1)N(C)CC2 (stereo not given)
Response line: > 100 µM

Prompt line: // query TGI value for entry CCCOc1ccc(/C(Cl)=C(\C=O)c2ccc(OC)c(OC)c2)cc1OCCC
Response line: > 100 µM

Prompt line: // query TGI value for entry COC(=O)[C@]12CC[C@@H](C)[C@H](C)[C@@H]1C1=CC[C@@H]3[C@@]4(C)C[C@@H](OC(=O)c5ccco5)[C@H](O)[C@@](C)(CO)[C@@H]4[C@H](O)C[C@@]3(C)[C@]1(C)CC2
Response line: 10.4 µM

Prompt line: // query TGI value for entry ON=C1CCCCC(=NO)CCCC1
Response line: > 100 µM

Prompt line: // query TGI value for entry COc1ccc2c(c1)C(=O)c1c-2n(CCCN=[N+]=[N-])c(=O)c2ccccc12
Response line: > 100 µM

Prompt line: // query TGI value for entry COC1=C(OC)C(=O)C(/C=C(\C)C(=O)O)=C(C)C1=O
Response line: > 100 µM

Prompt line: // query TGI value for entry CSC1=Nc2c(c(C)c(-c3ccccc3)n2COC(CO)CO)C2=NC(=O)C(C)N12 (stereo not given)
Response line: > 100 µM

Prompt line: // query TGI value for entry Cn1cc(-c2csc(-c3c[nH]c4ncccc34)n2)c2cc(Br)cnc21
Response line: > 100 µM

Prompt line: // query TGI value for entry CCCCCCCCCc1cc(O)c(O)cc1CCCCCCCCC
Response line: > 10 µM

Prompt line: // query TGI value for entry N#Cc1ccc(Oc2nccc(-c3c(-c4ccc(F)cc4)ncn3C3CCNCC3)n2)cc1
Response line: > 25 µM

Prompt line: // query TGI value for entry O=C(ON=c1c2ccccc2ccc2ccccc12)c1cc([N+](=O)[O-])cc([N+](=O)[O-])c1
Response line: > 100 µM
